Could you please report measured concentration at 1 h for the items listed next?
PROCEDURE_DETAILS: Drug distribution in C57BL/6 mouse adipose tissue 10 mg/kg, po and measured at 1 hrs post dose by LC-MS/MS analysis
Assay type: ADME, organism-based
EXPERIMENTAL_CONTEXT: read-out: Ct
Numbers only, in nM.

>  <COMPOUND>
O=C(Nc1ccc(N2CCC3(CC2)CC(C(=O)O)C3)nc1)c1nnc(Nc2ccc(F)c(F)c2)o1

>  <concentration at 1 h [nM]>
270

$$$$

Look at each compound and report its concentration at 1 h.
1. O=C(O)CC1CCC2(CC1)CCN(c1ccc(NC(=O)c3nnc(Nc4ccc(F)c(F)c4)o3)cn1)CC2
2. O=C(Nc1ccc(C2CCC3(CC2)CC(C(=O)O)C3)cc1)c1nnc(Nc2ccc(F)c(F)c2)o1 (centres undefined)
3. O=C(O)CC1CCC2(CC1)CCC(c1ccc(NC(=O)c3nnc(Nc4ccc(F)c(F)c4)o3)cn1)CC2 (centres undefined)

Output line:
[160, 470, 740]

====

PROCEDURE_DETAILS: Drug distribution in Wistar rat liver 10 mg/kg, po and measured at 2 hrs post dose by LC-MS/MS analysis
Assay type: ADME, organism-based
EXPERIMENTAL_CONTEXT: read-out: Ct
QUANTITY_NAME: concentration at 2 h (µM)
Numbers only, in µM.

Input line: For the molecule O=C(Nc1ccc(N2CCC3(CC2)CC(C(=O)O)C3)nc1)c1nnc(Nc2ccc(F)c(F)c2)o1 , give its reported concentration at 2 h.
Output line: 72

====

Provide the recorded remaining at 0.5 h, 1 µM for the entries that follow.
PROCEDURE_DETAILS: Metabolic stability in rat liver microsomes assessed as parent compound remaining at 1 uM and measured at 30 mins by LC-MS/MS analysis
Type: ADME, Microsome
EXPERIMENTAL_CONTEXT: read-out: Stability
Give bare numbers, in %.

Example results:
>  <MOLECULE>
O=C(O)CC1CCC2(CC1)CCN(c1ccc(NC(=O)c3nnc(Nc4ccc(F)c(F)c4)o3)cn1)CC2

>  <remaining at 0.5 h, 1 µM / %>
84

$$$$
>  <MOLECULE>
O=C(Nc1ccc(C2CCC3(CC2)CC(C(=O)O)C3)cc1)c1nnc(Nc2ccc(F)c(F)c2)o1 (stereo not given)

>  <remaining at 0.5 h, 1 µM / %>
100

$$$$
>  <MOLECULE>
O=C(O)CC1CCC2(CC1)CCC(c1ccc(NC(=O)c3nnc(Nc4ccc(F)c(F)c4)o3)cn1)CC2 (stereo not given)

>  <remaining at 0.5 h, 1 µM / %>
71

$$$$
>  <MOLECULE>
O=C(O)CC1CCC2(CC1)CCC(c1ccc(NC(=O)c3nnc(Nc4ccc(F)c(F)c4)o3)cc1)CC2 (stereo in doubt; 8)

>  <remaining at 0.5 h, 1 µM / %>
96

$$$$

Continue with the molecule presented below.
Input line: Using the record for O=C(Nc1ccc(N2CCC3(CC2)CC(C(=O)O)C3)nc1)c1nnc(Nc2ccc(F)c(F)c2)o1 , state its measured remaining at 0.5 h, 1 µM.
Output line: 92

====

PROCEDURE_DETAILS: Drug distribution in C57BL/6 mouse skeletal muscle 10 mg/kg, po and measured at 8 hrs post dose by LC-MS/MS analysis
Assay type: ADME, organism-based, Skeletal muscle tissue
EXPERIMENTAL_CONTEXT: read-out: Ct
QUANTITY_NAME: concentration at 8 h

Examples from the recorded data:
>  <COMPOUND>
O=C(Nc1ccc(N2CCC3(CC2)CC(C(=O)O)C3)nc1)c1nnc(Nc2ccc(F)c(F)c2)o1

>  <RESULT>
0.02 µM

$$$$
>  <COMPOUND>
O=C(O)CC1CCC2(CC1)CCC(c1ccc(NC(=O)c3nnc(Nc4ccc(F)c(F)c4)o3)cn1)CC2 (centres undefined)

>  <RESULT>
0.07 µM

$$$$
>  <COMPOUND>
O=C(O)CC1CCC2(CC1)CCN(c1ccc(NC(=O)c3nnc(Nc4ccc(F)c(F)c4)o3)cn1)CC2

>  <RESULT>
0.01 µM

$$$$

Input line: Provide only the value of recorded concentration at 8 h for O=C(Nc1ccc(C2CCC3(CC2)CC(C(=O)O)C3)cc1)c1nnc(Nc2ccc(F)c(F)c2)o1 (centres undefined)
Output line: 0.03 µM

====

PROCEDURE_DETAILS: Half life in Wistar rat at 3 mg/kg, iv or 10 mg/kg, po and measured up to 24 hrs by LC-MS/MS analysis
Assay type: ADME, organism-based
EXPERIMENTAL_CONTEXT: in vivo
Field: half-life. Provide a value for each of the molecules that follow.
Answers are plain numbers, in h.

>  <MOLECULE>
O=C(Nc1ccc(C2CCC3(CC2)CC(C(=O)O)C3)cc1)c1nnc(Nc2ccc(F)c(F)c2)o1 (centres undefined)

>  <NUMERIC_VALUE>
3.6

$$$$
>  <MOLECULE>
O=C(Nc1ccc(N2CCC3(CC2)CC(C(=O)O)C3)nc1)c1nnc(Nc2ccc(F)c(F)c2)o1

>  <NUMERIC_VALUE>
3.5

$$$$
>  <MOLECULE>
O=C(O)CC1CCC2(CC1)CCC(c1ccc(NC(=O)c3nnc(Nc4ccc(F)c(F)c4)o3)cn1)CC2 (centres undefined)

>  <NUMERIC_VALUE>
6.4

$$$$

As a next step, examine the molecule that follows.
Input line: Return half-life for the following molecule: O=C(O)CC1CCC2(CC1)CCN(c1ccc(NC(=O)c3nnc(Nc4ccc(F)c(F)c4)o3)cn1)CC2
Output line: 3.1

====

TGT: hERG (KCNH2) (Homo sapiens, UniProt Q12809)
Sequence (Q12809 whole entry): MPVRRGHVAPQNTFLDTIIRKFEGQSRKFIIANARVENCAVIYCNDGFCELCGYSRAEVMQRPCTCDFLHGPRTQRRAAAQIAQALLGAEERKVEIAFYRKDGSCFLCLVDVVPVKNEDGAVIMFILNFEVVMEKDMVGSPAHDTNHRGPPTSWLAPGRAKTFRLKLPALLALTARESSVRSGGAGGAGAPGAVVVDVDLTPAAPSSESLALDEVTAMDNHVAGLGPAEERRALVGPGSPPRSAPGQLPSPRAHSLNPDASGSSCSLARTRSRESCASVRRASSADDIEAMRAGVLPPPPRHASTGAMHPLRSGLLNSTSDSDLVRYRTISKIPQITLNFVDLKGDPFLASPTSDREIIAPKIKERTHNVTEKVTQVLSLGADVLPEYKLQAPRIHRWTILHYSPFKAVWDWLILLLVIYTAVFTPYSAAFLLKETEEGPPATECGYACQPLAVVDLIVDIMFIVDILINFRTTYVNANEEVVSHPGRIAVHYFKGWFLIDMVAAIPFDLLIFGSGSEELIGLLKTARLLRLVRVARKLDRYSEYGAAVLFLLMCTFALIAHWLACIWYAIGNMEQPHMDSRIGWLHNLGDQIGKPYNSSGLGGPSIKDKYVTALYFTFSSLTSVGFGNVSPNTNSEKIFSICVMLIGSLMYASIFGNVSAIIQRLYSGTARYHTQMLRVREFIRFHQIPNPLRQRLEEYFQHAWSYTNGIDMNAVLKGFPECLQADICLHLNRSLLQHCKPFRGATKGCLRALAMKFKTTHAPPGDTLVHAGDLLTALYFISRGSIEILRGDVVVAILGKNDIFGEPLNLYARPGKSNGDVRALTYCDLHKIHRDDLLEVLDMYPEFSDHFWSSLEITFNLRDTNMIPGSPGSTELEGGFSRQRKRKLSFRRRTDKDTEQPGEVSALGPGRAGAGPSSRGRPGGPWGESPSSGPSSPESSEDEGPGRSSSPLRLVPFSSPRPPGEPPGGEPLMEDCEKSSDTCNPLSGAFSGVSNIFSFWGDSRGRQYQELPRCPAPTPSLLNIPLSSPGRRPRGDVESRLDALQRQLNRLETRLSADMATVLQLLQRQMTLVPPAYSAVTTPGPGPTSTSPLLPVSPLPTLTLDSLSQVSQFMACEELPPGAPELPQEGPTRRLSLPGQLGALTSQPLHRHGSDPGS
PROCEDURE_DETAILS: Displacement of [3H]astemizole from human ERG expressed in HEK293 cell membrane at 10 uM for 2 hrs by Radiometric displacement assay
Assay type: toxicity
EXPERIMENTAL_CONTEXT: HEK293 cell membranes that express hERG, probe [3H]astemizole
For each of the compounds below, state its inhibition at 2 h, 10 µM.
Answers are plain numbers, in %.

>  <COMPOUND>
O=C(O)CC1CCC2(CC1)CCC(c1ccc(NC(=O)c3nnc(Nc4ccc(F)c(F)c4)o3)cc1)CC2 (stereo in doubt; 8)

>  <TGT>
hERG (KCNH2) (Homo sapiens, UniProt Q12809)

>  <UNIT_NAME>
%

>  <inhibition at 2 h, 10 µM>
18

$$$$

Now look at this one.
Input line: Specify the recorded inhibition at 2 h, 10 µM for O=C(O)CC1CCC2(CC1)CCN(c1ccc(NC(=O)c3nnc(Nc4ccc(F)c(F)c4)o3)cn1)CC2 , system: hERG (KCNH2) (Homo sapiens, UniProt Q12809).
Output line: 10

====

PROCEDURE_DETAILS: Drug distribution in Wistar rat liver 10 mg/kg, po and measured at 8 hrs post dose by LC-MS/MS analysis
Type: ADME, organism-based
EXPERIMENTAL_CONTEXT: read-out: Ct
QUANTITY_NAME: concentration at 8 h (µM)
Numbers only, in µM.

Input line: Return concentration at 8 h for the following molecule: O=C(Nc1ccc(N2CCC3(CC2)CC(C(=O)O)C3)nc1)c1nnc(Nc2ccc(F)c(F)c2)o1
Output line: 32

====

Give measured inhibition at 25 µM for each item. Keep answers brief.
TGT: UniProtKB P05177
Sequence (P05177 whole entry): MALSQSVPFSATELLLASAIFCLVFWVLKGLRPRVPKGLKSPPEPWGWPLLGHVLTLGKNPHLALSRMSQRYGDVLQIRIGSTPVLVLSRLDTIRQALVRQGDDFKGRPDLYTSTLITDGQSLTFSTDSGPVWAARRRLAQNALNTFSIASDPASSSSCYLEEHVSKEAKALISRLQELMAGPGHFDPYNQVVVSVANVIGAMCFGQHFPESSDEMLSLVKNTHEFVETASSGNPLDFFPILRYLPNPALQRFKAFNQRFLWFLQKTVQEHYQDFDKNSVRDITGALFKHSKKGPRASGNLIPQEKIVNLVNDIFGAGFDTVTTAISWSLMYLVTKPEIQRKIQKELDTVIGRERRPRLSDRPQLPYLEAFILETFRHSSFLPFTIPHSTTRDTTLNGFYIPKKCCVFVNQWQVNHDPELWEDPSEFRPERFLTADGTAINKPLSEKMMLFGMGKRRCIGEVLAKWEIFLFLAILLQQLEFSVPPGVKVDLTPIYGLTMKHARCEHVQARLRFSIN
PROCEDURE_DETAILS: Inhibition of recombinant human CYP1A2 at 25 uM by fluorescence plate reader analysis
Format: ADME
Give bare numbers, in %.

>  <COMPOUND>
O=C(Nc1ccc(N2CCC3(CC2)CC(C(=O)[O-])C3)nc1)c1nnc(Nc2ccc(F)c(F)c2)o1.[Na+]

>  <UNIT_NAME>
%

>  <inhibition at 25 µM>
12

$$$$
>  <COMPOUND>
O=C([O-])CC1CCC2(CC1)CCC(c1ccc(NC(=O)c3nnc(Nc4ccc(F)c(F)c4)o3)cn1)CC2.[Na+] (stereo not given)

>  <UNIT_NAME>
%

>  <inhibition at 25 µM>
13

$$$$
>  <COMPOUND>
O=C(Nc1ccc(C2CCC3(CC2)CC(C(=O)O)C3)cc1)c1nnc(Nc2ccc(F)c(F)c2)o1 (stereo not given)

>  <UNIT_NAME>
%

>  <inhibition at 25 µM>
18

$$$$
>  <COMPOUND>
O=C([O-])CC1CCC2(CC1)CCN(c1ccc(NC(=O)c3nnc(Nc4ccc(F)c(F)c4)o3)cn1)CC2.[Na+]

>  <UNIT_NAME>
%

>  <inhibition at 25 µM>
8

$$$$

Input line: Give the reported inhibition at 25 µM for this compound. O=C([O-])CC1CCC2(CC1)CCC(c1ccc(NC(=O)c3nnc(Nc4ccc(F)c(F)c4)o3)cc1)CC2.[Na+] (stereo not given)
Output line: 5

====

PROCEDURE_DETAILS: Metabolic stability in human liver microsomes assessed as parent compound remaining at 1 uM and measured at 30 mins by LC-MS/MS analysis
Format: ADME, Microsome
EXPERIMENTAL_CONTEXT: read-out: Stability
QUANTITY_NAME: remaining at 0.5 h, 1 µM (%)
Numbers only, in %.

Reference set (4 entries):
>  <COMPOUND>
O=C(Nc1ccc(N2CCC3(CC2)CC(C(=O)O)C3)nc1)c1nnc(Nc2ccc(F)c(F)c2)o1

>  <remaining at 0.5 h, 1 µM [%]>
89

$$$$
>  <COMPOUND>
O=C(Nc1ccc(C2CCC3(CC2)CC(C(=O)O)C3)cc1)c1nnc(Nc2ccc(F)c(F)c2)o1 (stereo not given)

>  <remaining at 0.5 h, 1 µM [%]>
95

$$$$
>  <COMPOUND>
O=C(O)CC1CCC2(CC1)CCC(c1ccc(NC(=O)c3nnc(Nc4ccc(F)c(F)c4)o3)cc1)CC2 (stereo in doubt; 8)

>  <remaining at 0.5 h, 1 µM [%]>
100

$$$$
>  <COMPOUND>
O=C(O)CC1CCC2(CC1)CCC(c1ccc(NC(=O)c3nnc(Nc4ccc(F)c(F)c4)o3)cn1)CC2 (stereo not given)

>  <remaining at 0.5 h, 1 µM [%]>
100

$$$$

Kindly consider the entry below.
Input line: Return value of remaining at 0.5 h, 1 µM for input O=C(O)CC1CCC2(CC1)CCN(c1ccc(NC(=O)c3nnc(Nc4ccc(F)c(F)c4)o3)cn1)CC2 , no commentary.
Output line: 100

FYI, the data here is from ChEMBL document CHEMBL5143597.
